- Test system: soybean
- method.summary: Test B pre/postemergence soybean
- Assay type: in vivo, Glycine max
- recorded.conditions: Postemergence, Rate 62 g/ha; scale 0 to 10, 0 is no effect, 10 is complete control
endpoint.label: Plant response rating, Soybean
Give only the figure.

Answered cases to consult:
CCOC(CC)n1c(=O)on(C(=O)N(c2ccccc2)C(C)C)c1=O (stereo not shown) | 0
C=C(Cl)Cn1c(=O)on(C(=O)N(c2ccccc2)C(C)C)c1=O | 3
CC(C)N(C(=O)n1oc(=O)n(CC(=O)C2CCC2)c1=O)c1ccc(F)cc1F | 2

Please examine the following record next.
Tell me its Plant response rating, Soybean given C#CC(C)n1c(=O)on(C(=O)N(c2ccccc2)C(C)C)c1=O (stereo not shown) as the entry.
5
